# Target Of Assay: human non-pancreatic sPLA2 (type IIa) (Homo sapiens)
# Construct: Garvan Institute for Medical Research (provided, not a commercial vendor)
# Sequence (P14555 21-144): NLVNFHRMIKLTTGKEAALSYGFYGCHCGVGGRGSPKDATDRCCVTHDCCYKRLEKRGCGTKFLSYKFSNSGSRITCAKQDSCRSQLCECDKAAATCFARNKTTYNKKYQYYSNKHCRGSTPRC
# Test Summary: Assay for inhibition of human non-pancreatic sPLA2 (type IIa), mixed micelle colorimetric assay
# Run Parameters: recombinant hIIa-PLA2; substrate diheptanoyl thio-phosphatidyl choline, DTNB detection; IC50 from Dixon plot extrapolation; read-out: IC50, inhibition of human secretary PLA2
# Text: Assay for Inhibition of Human Non-Pancreatic sPLA2 (type IIa) A mixed nucelle colorimetric assay utilising a microtitreplate reader was used as described by Reynolds, L. J.; Hughes, L. L.; Dennis, E. A. “Analysis of human synovial fluid phospholipase A2 on short chain phosphatidylcholine-mixed micelles: Development of a spectrophotometric assay suitable for a microplate reader”. Anal Biochem. 1992, 204, 190-197. […]
pIC50: −log10 of the molar value.
# label = yes if pIC50 >= 6 else no

molecule="O=C(O)CCC(Cc1ccc(OCc2cccnc2)cc1)NC(=O)CCCCCCc1ccccc1 (racemic)" class_name=yes
molecule="O=C(CCCCCCc1ccccc1)NC(COP(=O)(O)CCCO)Cc1ccc(OCc2ccccc2)cc1 (stereo not shown)" class_name=yes
molecule="O=C(O)CCC(Cc1ccc(OCc2ccccc2)cc1)NC(=O)CCCCCc1ccccc1 (racemic)" class_name=yes
molecule=O=C(O)CC[C@@H](Cc1cn(CCCc2ccccc2)c2ccccc12)NC(=O)CCCCCCc1ccccc1 class_name=no
molecule="COc1ccccc1CCCCCCC(=O)NC(CCC(=O)O)Cc1ccc(OCc2ccccc2)cc1 (racemic)" class_name=no

In the following, a different molecule is considered.
Q: Dear colleague, could you confirm whether O=C(O)CCC(Cc1ccc(OCc2ccccc2)cc1)NC(=O)CCCCCCCc1ccccc1 (racemic) has pIC50 at or above 6?
Ans: yes
